Target system: Adrenergic receptor alpha-2 (Rattus norvegicus, UniProt P22086+P19328+P22909)
Sequence (P22086 whole entry): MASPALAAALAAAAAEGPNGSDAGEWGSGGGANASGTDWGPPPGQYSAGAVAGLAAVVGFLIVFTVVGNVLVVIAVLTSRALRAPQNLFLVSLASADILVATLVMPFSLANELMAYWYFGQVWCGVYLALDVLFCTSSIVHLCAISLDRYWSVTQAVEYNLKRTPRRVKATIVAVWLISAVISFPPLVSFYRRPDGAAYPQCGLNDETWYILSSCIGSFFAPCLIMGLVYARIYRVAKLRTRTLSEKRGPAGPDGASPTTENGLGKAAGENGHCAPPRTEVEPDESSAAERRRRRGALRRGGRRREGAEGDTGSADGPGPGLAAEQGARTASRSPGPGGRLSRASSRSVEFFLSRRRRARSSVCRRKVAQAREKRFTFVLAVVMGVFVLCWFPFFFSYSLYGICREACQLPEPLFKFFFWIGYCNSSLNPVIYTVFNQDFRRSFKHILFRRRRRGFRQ
Sequence (P19328 whole entry): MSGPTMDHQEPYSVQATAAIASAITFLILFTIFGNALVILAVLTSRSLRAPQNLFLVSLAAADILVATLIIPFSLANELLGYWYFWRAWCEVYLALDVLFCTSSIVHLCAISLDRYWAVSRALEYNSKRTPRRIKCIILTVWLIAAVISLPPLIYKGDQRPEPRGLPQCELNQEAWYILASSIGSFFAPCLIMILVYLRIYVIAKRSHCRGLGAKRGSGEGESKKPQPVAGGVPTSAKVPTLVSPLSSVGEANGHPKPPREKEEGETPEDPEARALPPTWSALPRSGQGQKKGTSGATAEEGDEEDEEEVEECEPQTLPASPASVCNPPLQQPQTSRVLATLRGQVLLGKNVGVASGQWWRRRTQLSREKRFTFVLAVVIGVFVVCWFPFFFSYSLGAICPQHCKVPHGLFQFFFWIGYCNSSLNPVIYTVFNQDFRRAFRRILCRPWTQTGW
Sequence (P22909 whole entry): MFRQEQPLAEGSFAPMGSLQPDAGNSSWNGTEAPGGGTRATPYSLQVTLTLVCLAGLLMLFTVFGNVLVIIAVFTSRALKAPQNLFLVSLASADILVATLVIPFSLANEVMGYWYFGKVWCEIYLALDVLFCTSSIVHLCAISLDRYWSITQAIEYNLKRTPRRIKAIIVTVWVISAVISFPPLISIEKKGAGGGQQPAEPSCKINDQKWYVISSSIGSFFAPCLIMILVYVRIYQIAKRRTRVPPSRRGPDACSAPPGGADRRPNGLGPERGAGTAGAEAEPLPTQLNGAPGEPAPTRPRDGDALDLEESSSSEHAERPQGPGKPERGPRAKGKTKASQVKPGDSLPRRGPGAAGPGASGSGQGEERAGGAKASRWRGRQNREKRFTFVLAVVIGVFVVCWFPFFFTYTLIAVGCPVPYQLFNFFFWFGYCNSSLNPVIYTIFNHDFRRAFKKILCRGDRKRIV
Procedure summary: Binding affinity against alpha-2 adrenergic receptor in rat brain membrane using […] as a selective ligand.
Format: cell membranes
Measured parameter: Log IC50
Write no unit; give the number alone.

Compound	Target system	Observed result
O=C1CC2(CCCC2)CC(=O)N1CCCCNCC1COc2ccccc2O1 (centres undefined)	Adrenergic receptor alpha-2 (Rattus norvegicus, UniProt P22086+P19328+P22909)	-6.4

The measured Log IC50 associated with `O=C1CC2(CCCC2)CC(=O)N1CCCCNC[C@H]1COc2ccccc2O1` reads -6.3

====

Target system: UniProtKB P28564
Procedure summary: Binding affinity against 5-HT1B receptor in rat brain membrane using [3H]-5-HT in the presence of 8-OH-DPAT.
Measured parameter: pIC50
Here pIC50 is given on a logarithmic scale as minus log10 of the concentration in mol/L.

Compound	Target system	pIC50
O=C1CC2(CCCC2)CC(=O)N1CCCCNC[C@H]1COc2ccccc2O1	UniProtKB P28564	6.10

Tested system UniProtKB P28564; pIC50 recorded for O=C1CC2(CCCC2)CC(=O)N1CCCCNCC1COc2ccc3ccccc3c2O1 (stereo not given) was 6.40

Tested system UniProtKB P28564; pIC50 recorded for O=C1CC2(CCCC2)CC(=O)N1CCCCNCC1COc2ccccc2O1 (stereo not given) was 6.20

Tested system UniProtKB P28564; pIC50 recorded for O=C1CC2(CCCC2)CC(=O)N1CCCCNCC1COc2c(ccc3ccccc23)O1 (stereo not given) was 5.50

Tested system UniProtKB P28564; pIC50 recorded for `O=C1CC2(CCCC2)CC(=O)N1CCCCNC[C@@H]1COc2ccccc2O1` was 5.30

====

Target system: 5-hydroxytryptamine receptor 1B (Rattus norvegicus)
Sequence (P28564 whole entry): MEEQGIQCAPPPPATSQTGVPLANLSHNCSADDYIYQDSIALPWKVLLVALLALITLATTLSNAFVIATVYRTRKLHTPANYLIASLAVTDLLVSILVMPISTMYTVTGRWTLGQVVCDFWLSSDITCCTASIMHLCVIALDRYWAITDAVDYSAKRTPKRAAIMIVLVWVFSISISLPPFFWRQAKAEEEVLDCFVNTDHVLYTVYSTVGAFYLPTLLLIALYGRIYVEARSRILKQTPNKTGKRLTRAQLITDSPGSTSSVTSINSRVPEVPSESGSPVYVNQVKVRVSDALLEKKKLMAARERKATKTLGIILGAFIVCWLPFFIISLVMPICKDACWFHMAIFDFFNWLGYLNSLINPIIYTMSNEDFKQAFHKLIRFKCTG
Procedure summary: Binding affinity against 5-HT1B receptor in rat frontal cortex using [3H]-5-HT in presence of 0.1 uM […]
Assay type: tissue-based
Measured parameter: IC50 (nM)
Note: unit nM is implicit; provide only the numeric part.

Smiles data	IC50, nM
O=C(CCCN1CCC2(CC1)C(=O)NCN2c1ccccc1)c1ccc(F)cc1	1000

Next up:
The measured IC50 associated with `CSc1ccc2c(c1)[C@H](N1CCN(C)CC1)Cc1ccccc1S2` reads 3240

====

Target system: D(2) dopamine receptor (Rattus norvegicus, UniProt P61169)
Sequence (P61169 whole entry): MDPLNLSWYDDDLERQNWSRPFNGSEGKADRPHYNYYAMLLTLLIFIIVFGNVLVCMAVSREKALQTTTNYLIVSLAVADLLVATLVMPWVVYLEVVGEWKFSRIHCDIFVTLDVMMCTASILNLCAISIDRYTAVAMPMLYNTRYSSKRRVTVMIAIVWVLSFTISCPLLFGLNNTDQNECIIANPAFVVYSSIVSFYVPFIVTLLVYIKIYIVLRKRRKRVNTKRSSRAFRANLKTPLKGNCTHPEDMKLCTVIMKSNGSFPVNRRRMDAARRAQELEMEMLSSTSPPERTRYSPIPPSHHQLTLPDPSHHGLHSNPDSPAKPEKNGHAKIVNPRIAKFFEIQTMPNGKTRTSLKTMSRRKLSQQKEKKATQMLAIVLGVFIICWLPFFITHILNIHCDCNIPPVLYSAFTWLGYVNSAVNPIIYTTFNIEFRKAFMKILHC
Procedure summary: Binding affinity against Dopamine receptor D2 in rat brain membrane using [3H]domperidone as radioligand.
Measured parameter: IC50 (nM)
Note: unit nM is implicit; provide only the numeric part.

The measured IC50 associated with O=C1CC2(CCCC2)CC(=O)N1CCCCNCC1COc2c(ccc3ccccc23)O1 (stereo unspecified) reads 316

====

Target system: 5-hydroxytryptamine receptor 1A (Rattus norvegicus)
Sequence (P19327 whole entry): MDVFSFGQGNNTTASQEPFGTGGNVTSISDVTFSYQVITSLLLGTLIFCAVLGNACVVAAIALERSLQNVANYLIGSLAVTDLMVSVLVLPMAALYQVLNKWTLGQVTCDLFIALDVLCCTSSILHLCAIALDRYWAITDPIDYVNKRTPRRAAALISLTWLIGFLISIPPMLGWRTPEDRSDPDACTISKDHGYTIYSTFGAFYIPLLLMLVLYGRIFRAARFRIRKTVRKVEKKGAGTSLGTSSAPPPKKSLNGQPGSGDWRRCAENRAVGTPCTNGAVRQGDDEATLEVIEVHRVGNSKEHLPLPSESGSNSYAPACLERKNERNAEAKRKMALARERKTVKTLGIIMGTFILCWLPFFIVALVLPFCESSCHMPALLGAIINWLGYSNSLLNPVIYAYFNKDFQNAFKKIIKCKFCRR
Procedure summary: Binding affinity towards 5-hydroxytryptamine 1A receptor in rat frontal cortex using [3H]8-OH-DPAT as a radioligand
Assay type: tissue-based
pIC50: −log10 of the molar value.
Returns label 1 if the recorded pIC50 is greater than or equal to 8, and label 0 otherwise.

Compound	Category
CSc1ccc2c(c1)[C@@H](N1CCN(C)CC1)Cc1ccccc1S2	label 0
O=C1CC2(CCCC2)CC(=O)N1CCCCNCC1COc2ccccc2O1 (stereo not given)	label 1
O=C1CC2(CCCC2)CC(=O)N1CCCCNCC1COc2ccc3ccccc3c2O1 (stereo not given)	label 1
O=C1CC2(CCCC2)CC(=O)N1CCCCNCC1COc2c(ccc3ccccc23)O1 (stereo not given)	label 0

Turning now to a further compound:
Exercise: Determine whether measured pIC50 meets or exceeds 8 for `O=C1CC2(CCCC2)CC(=O)N1CCCCNC[C@H]1COc2ccccc2O1`
Solution: label 1

====

Target system: Adrenergic receptor alpha-1 (Rattus norvegicus, UniProt P15823+P23944+P43140)
Sequence (P15823 whole entry): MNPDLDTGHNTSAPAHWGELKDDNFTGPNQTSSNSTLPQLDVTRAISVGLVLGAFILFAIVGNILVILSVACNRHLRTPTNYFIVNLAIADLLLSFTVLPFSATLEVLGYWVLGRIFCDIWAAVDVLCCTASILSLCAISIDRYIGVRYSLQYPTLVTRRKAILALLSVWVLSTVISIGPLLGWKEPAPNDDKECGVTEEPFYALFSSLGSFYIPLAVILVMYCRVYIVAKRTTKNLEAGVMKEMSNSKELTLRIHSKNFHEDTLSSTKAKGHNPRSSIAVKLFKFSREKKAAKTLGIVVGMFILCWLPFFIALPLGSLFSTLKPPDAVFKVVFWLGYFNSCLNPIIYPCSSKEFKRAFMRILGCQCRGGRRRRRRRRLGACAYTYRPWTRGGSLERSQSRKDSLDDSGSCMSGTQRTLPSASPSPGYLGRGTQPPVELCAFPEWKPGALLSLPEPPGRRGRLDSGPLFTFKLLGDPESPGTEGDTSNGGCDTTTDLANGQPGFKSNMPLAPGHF
Sequence (P23944 whole entry): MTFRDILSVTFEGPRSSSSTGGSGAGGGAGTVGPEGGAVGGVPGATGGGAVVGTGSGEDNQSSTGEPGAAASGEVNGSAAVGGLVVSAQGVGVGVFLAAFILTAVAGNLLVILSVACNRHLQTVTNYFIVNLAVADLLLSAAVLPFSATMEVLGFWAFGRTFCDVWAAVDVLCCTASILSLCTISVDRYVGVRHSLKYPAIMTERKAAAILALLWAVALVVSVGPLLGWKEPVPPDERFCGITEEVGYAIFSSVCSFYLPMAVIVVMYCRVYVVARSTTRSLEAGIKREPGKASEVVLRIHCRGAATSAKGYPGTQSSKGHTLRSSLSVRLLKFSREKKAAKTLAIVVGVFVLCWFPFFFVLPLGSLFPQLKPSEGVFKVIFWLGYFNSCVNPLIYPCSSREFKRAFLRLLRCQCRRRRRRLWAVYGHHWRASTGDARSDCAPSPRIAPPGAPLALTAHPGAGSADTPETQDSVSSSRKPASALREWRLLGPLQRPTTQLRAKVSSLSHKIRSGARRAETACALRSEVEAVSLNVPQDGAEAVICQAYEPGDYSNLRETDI
Sequence (P43140 whole entry): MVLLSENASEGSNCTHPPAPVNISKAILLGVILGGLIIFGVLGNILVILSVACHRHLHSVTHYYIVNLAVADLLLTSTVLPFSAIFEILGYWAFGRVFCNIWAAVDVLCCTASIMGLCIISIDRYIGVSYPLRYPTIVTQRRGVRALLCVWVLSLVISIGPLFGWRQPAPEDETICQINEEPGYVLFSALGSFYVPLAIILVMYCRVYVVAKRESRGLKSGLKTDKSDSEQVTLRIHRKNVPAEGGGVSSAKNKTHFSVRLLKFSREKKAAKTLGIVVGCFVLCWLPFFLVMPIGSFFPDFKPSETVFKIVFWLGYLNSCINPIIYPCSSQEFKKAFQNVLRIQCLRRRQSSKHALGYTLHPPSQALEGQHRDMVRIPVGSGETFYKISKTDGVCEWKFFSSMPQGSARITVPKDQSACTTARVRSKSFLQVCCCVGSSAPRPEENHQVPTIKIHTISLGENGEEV
Procedure summary: Binding affinity against alpha-1 adrenergic receptor in rat brain membrane using […] as a selective ligand.
Type: cell membranes
# reported Log IC50; entries follow

Sample records with Log IC50:
Molecule	Target system	Log IC50
O=C1CC2(CCCC2)CC(=O)N1CCCCNC[C@H]1COc2ccccc2O1	Adrenergic receptor alpha-1 (Rattus norvegicus, UniProt P15823+P23944+P43140)	-8
O=C1CC2(CCCC2)CC(=O)N1CCCCNCC1COc2c(ccc3ccccc23)O1 (stereo unspecified)	Adrenergic receptor alpha-1 (Rattus norvegicus, UniProt P15823+P23944+P43140)	-5.2
O=C1CC2(CCCC2)CC(=O)N1CCCCNC[C@@H]1COc2ccccc2O1	Adrenergic receptor alpha-1 (Rattus norvegicus, UniProt P15823+P23944+P43140)	-7.2

The measured Log IC50 associated with O=C1CC2(CCCC2)CC(=O)N1CCCCNCC1COc2ccccc2O1 (stereo unspecified) reads -7.8

The measured Log IC50 associated with O=C1CC2(CCCC2)CC(=O)N1CCCCNCC1COc2ccc3ccccc3c2O1 (stereo unspecified) reads -6.1

The measured Log IC50 associated with O=C1CC2(CCCC2)CC(=O)N1CCCCNCC1COc2cc3ccccc3cc2O1 (stereo unspecified) reads -5.3
